molecular target: Fuc(a1-2)Gal(b1-3)GalNAc; experiment: glycan array binding signal (z-score within array); higher = stronger binding; conditions: glycan notation: IUPAC condensed, linker removed
The entries come from a sample that favours the strongest signals as a whole.
RESULT TYPE: glycan array binding signal (z-score)

Cohesin-marm-DC-ASGPR-CRD (protein) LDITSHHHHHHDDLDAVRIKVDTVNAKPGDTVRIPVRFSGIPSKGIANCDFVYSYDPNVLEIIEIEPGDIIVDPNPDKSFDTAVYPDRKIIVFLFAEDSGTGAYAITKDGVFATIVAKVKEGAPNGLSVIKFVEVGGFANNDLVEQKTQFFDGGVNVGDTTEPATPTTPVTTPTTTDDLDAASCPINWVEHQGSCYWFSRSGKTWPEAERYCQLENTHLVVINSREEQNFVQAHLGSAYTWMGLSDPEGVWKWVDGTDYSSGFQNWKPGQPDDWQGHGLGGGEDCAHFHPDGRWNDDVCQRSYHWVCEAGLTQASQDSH    -0.443
Si Bti9 1b-V5-his (Solanum lycopersicum) (protein) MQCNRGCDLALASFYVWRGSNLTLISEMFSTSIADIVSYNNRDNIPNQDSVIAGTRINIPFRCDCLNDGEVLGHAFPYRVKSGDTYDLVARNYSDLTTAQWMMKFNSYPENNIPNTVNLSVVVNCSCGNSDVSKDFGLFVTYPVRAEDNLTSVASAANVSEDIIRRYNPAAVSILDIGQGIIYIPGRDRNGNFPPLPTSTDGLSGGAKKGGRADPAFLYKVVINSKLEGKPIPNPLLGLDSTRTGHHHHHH    -0.261
EUL D1A (Oryza sativa) (protein) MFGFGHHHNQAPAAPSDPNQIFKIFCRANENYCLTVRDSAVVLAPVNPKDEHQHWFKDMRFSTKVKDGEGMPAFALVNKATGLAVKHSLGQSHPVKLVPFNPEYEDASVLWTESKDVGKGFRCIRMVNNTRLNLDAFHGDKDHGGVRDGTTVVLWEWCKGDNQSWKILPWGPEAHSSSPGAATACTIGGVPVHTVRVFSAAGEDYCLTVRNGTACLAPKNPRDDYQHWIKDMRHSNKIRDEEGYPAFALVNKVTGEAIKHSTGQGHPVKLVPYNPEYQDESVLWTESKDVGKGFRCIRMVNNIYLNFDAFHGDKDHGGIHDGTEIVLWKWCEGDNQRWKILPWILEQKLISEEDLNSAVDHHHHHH    -0.934
Gal 8 (Homo sapiens), O00214_1 (protein) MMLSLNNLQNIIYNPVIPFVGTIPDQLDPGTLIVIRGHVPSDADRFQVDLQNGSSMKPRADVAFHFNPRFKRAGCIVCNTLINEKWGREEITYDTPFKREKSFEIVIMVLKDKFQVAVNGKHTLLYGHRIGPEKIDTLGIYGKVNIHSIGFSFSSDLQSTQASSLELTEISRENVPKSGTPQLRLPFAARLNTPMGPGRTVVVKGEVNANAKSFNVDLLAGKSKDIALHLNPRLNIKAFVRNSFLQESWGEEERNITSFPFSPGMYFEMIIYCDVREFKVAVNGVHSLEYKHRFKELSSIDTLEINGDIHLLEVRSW    -0.23
Jacalin (Artocarpus integrifolia) (protein) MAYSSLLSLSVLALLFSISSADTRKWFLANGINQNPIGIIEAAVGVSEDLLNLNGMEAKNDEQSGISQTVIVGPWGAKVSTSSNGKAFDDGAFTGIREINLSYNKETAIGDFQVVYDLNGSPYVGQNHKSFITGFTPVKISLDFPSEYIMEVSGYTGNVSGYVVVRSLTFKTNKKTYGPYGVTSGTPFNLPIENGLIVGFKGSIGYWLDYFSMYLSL    0.218
